Biological target: T1, CD123 Protein, His Tag, Acro Biosciences Cat. No. ILA-H52H6 (Homo sapiens (Human), UniProt P26951 19-305)
T1 construct: Bought protein; not shown: His tag
T1 sequence: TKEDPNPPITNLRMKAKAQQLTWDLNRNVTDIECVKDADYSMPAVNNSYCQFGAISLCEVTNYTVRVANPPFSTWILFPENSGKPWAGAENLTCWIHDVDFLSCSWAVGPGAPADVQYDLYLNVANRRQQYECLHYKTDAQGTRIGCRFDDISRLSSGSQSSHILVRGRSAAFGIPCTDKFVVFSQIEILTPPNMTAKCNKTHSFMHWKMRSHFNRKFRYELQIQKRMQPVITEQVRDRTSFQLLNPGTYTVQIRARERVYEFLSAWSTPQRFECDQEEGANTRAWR
Test: BLI, IgG on anti-human Fc sensor, 50 nM CD123, pH 7.4 and pH 5.4

binder: MYT2790 (antibody, V domains shown, IgG) VH: QVQLVQSGAEVKKPGASVKVSCKASGYIFTSSIMHWVRQAPGQGLEWIGYIKPYNDGTKYNEKFKGRATLTSDRSTSTAYMELSSLRSEDTAVYYCAREGGNDYYDTMDYWGQGTLVTVSS VL: DIQMTQSPSSLSASVGDRVTITCRASQDINSYLSWFQQKPGKAPKTLIYRVNRLVHGVPSRFSGSGSGNDYTLTISSLQPEDFATYYCLQYDAFPYTFGQGTKVEIK
binding result: binds

binder: MYT1268 (antibody, V domains shown, IgG) VH: QVQLVQSGAEVKKPGASVKVSCKASGYIFTSSIMHWVRQAPGQGLEWIGYIKPYNHGTKYNEKFKGRATLTSDRSTSTAYMELSSLRSEDTAVYYCAREGGNDYYDTMDYWGQGTLVTVSS VL: DIQMTQSPSSLSASVGDRVTITCRASQDINSYLSWFQQKPGKAPKTLIYRVNRLVDGVPSRFSGSGSGNDYTLTISSLQPEDFATYYCLQYDAFPYTFGQGTKVEIK
binding result: binds

The measured values listed here are drawn from patent US20220306751A1.
